Tested on: VEGF165 (Homo sapiens), P15692-4
Sequence: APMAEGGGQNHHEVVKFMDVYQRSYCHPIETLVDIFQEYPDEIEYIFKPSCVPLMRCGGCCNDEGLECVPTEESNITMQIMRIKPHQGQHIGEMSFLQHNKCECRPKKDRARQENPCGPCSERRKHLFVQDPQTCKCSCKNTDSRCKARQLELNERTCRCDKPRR
Experiment: filter
Conditions: 2'-F pyrimidines, 2'-OH purines; 37 C, single determination
Measured Property: Kd (pM)
Provide only the numeric value, understood in pM.

{"Polymer Sequence": "GGGAGGACGAUGCGGAGAAUCAGUGAAUGCUUAUAAAUCUCGYGUCAGACGACUCGCCCGA [VT30.3]", "Kd, pM": 5}

What does the record list as Kd for GGGAGGACGAUGCGGAYCAACCGAUUGACGUUAUGGGACGCUGGUCAGACGACUCGCCCGA [VP30.5] ?
8

Also need GGGAGGACGAUGCGGCGGYACUUUGGAAGAAUUGAAUUUCCCGCUCAGACGACUCGCCCGA [VP30.26] , thanks.
10

====

Test system: VEGF165 (Homo sapiens), P15692-4
Sequence: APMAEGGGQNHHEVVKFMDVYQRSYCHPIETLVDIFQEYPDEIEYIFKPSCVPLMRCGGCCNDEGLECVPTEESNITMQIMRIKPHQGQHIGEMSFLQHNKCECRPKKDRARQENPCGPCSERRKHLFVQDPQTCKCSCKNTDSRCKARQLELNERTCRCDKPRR
Experiment: filter
Conditions: 2'-F pyrimidines, 2'-OH purines; 37 C
Measured Property: Kd
Please don't drop the unit; write it after the number.

{"Polymer Sequence": "GGGAGGACGAUGCGGYGAACCGAUGGAAUUUUUGGACGCUCGCCUCAGACGACUCGCCCGA [VP30.2]", "Kd": "0.01 nM"}

// next entry
Name the reported Kd value associated with the sequence GGGAGGACGAUGCGGUAGGAAGAAUUGGAAGCGCAUUUUCCUCGYCAGACGACUCGCCCGA [VP30.22]
0.02 nM
